# Species: Homo sapiens
# protocol text: Relative ex vivo induction of IL1-beta in human whole blood stimulated with 10 ug/mL
# Assay type: functional
Consider the following compounds and their measured Cytokine induction readings.
endpoint label: Cytokine induction

[[record]]
compound = "CCCCCCCCCCC[C@H](CC(=O)N[C@@H](CO[C@@H]1OC(CO)[C@H](OP(=O)(O)O)C(OC(=O)C[C@@H](CCCCCCCCCCC)OC(=O)CCCCCCCCC)[C@@H]1NC(=O)C[C@@H](CCCCCCCCCCC)OC(=O)CCCCCCCCC)C(=O)O)OC(=O)CCCCCCCCC (some centres not stated)"
data_value = 23

[[record]]
compound = "CCCCCCCCCCCCCC(=O)O[C@H](CCCCCCCCCCC)CC(=O)NC(CO[C@@H]1OC(CO)[C@H](OP(=O)(O)O)C(OC(=O)C[C@@H](CCCCCCCCCCC)OC(=O)CCCCCCCCCCCCC)[C@@H]1NC(=O)C[C@@H](CCCCCCCCCCC)OC(=O)CCCCCCCCCCCCC)C(=O)O (some centres not stated)"
data_value = 4.8

